Data provenance: ChEMBL document CHEMBL1158173

Give MIC for every item shown.
System: Cryptococcus neoformans
Assay: Antifungal activity against Cryptococcus neoformans after 48 hrs by broth microdilution technique
Format: functional
The figure you give is taken to be in µg/mL; do not add the unit.

Query :: Indicate its recorded MIC; the compound in question is CN1CCN(C(=S)SCC(O)CN(C)CCC(Oc2ccc(C(F)(F)F)cc2)c2ccccc2)CC1 (stereo not given)
Result :: 12.5

Query :: Indicate its recorded MIC; the compound in question is CN(CCC(Oc1ccc(C(F)(F)F)cc1)c1ccccc1)C(=S)[S-].[Na+] (stereo not given)
Result :: 25

Query :: Indicate its recorded MIC; the compound in question is CN(CCC(Oc1ccc(C(F)(F)F)cc1)c1ccccc1)C(=S)SCCN1CCCCC1 (stereo not given)
Result :: 1.56

Query :: Indicate its recorded MIC; the compound in question is CN(CCC(Oc1ccc(C(F)(F)F)cc1)c1ccccc1)C(=S)SCCCl (stereo not given)
Result :: 50

Query :: Indicate its recorded MIC; the compound in question is CN(C)CCSC(=S)N(C)CCC(Oc1ccc(C(F)(F)F)cc1)c1ccccc1 (stereo not given)
Result :: 50
